- targetSystem: collagen
- protocolDescription: fluorescence plate binding assay, collagen coated on 96-well high-binding plate, equilibrium fit
Ends that are not written are not given here. * marks the point of attachment. Dansyl = CN(C)c1cccc2c(S(=O)(=O)*)cccc12
endpointLabel: pKd
Please express pKd as -log10 of the molar concentration.

Entry Dansyl-GRRANAALKAGELYKSILYGC [Dansyl-…] has what pKd? 6.07
